# Tested on: groundsel (common groundsel, Senecio vulgaris)
# Test Details: Test D pre-/postemergence plant response
# Assay type: in vivo
# Experimental Setup: Postemergence, 31 g ai/ha; scale 0 to 100
# From the text: […] Treated plants and controls were maintained in a greenhouse for 14 to 21 days, after which time all species were visually evaluated and compared to controls. […]
Quick reference: Plant response rating, Groundsel of the listed items.
The answer should be a number; do not append a unit.

*Q* I have this compound here, CCCCn1c(-c2ccccc2)ncc(C(=O)C2=C(O)C3CCC(C3)C2=O)c1=O (stereo not drawn) [Compound 240] , and I need its recorded Plant response rating, Groundsel.
*A* 100

Continuing:
*Q* For the compound shown here, O=C1CCCC(O)=C1C(=O)c1cnc(-c2cccs2)n(-c2ccccc2)c1=O [Compound 66] , give the reported Plant response rating, Groundsel.
*A* 60

*Q* Would you mind telling me what Plant response rating, Groundsel value was observed for Cc1c(F)cccc1-n1c(-c2ccccc2)ncc(C(=O)C2=C(O)CCCC2=O)c1=O [Compound 47] ?
*A* 100

*Q* State the recorded Plant response rating, Groundsel for this entry: O=C1CCCC(O)=C1C(=O)c1cnc(-c2cccnc2)n(-c2ccccc2)c1=O [Compound 113]
*A* 90

*Q* Dear colleague, I am looking for the recorded Plant response rating, Groundsel of the following compound: O=C1CCCC(O)=C1C(=O)c1cnc(C2CC2)n(-c2ccccc2)c1=O [Compound 87]
*A* 98

*Q* Quick check: Plant response rating, Groundsel of COCCCn1c(-c2cc(F)cc(F)c2)ncc(C(=O)C2=C(O)C3CCC(C3)C2=O)c1=O (stereo not drawn) [Compound 244] ?
*A* 100

Every entry's value here was drawn from patent US8952024B2.
